Recorded values, source PubChem BioAssay (NCI).

System: MALME-3M melanoma
Experiment: NCI-60 one-dose screen, 48 h (100 = growth as untreated, 0 = no growth, -100 = all killed)
Conditions: 10 µM unless noted
The panel holds about 83,000 compounds, 20% with a hit somewhere; the sample as a whole holds those more often.
testReadout: growth (%)

{"structure": "Cn1cc(-c2ncnc3ccc(-c4cnc(Cl)c(NS(C)(=O)=O)c4)cc23)c2ccccc21", "testReadout": "growth", "dataValue": -13.6}
{"structure": "Cn1c(=O)c(F)c(Nc2ccc(I)cc2F)c2c(=O)n(C[C@@H](O)CO)cnc21", "testReadout": "growth", "dataValue": 0.26}
{"structure": "CCOC(=O)C1=C(C)N=C2Sc3cc(OC(F)(F)F)ccc3N2[C@H]1c1ccccn1", "testReadout": "growth", "dataValue": 59.1}
{"structure": "Cn1ncc(Cl)c1-c1cc(C(=O)N[C@H](CN)Cc2ccc(F)c(F)c2)oc1Cl", "testReadout": "growth", "dataValue": -78.6}
{"structure": "CSc1nc2ncncc2[nH]1", "testReadout": "growth", "dataValue": 111}

###

System: SK-MEL-28 melanoma
Assay: NCI-60 one-dose screen, 48 h (100 = growth as untreated, 0 = no growth, -100 = all killed)
Conditions: 10 µM unless noted
Method: Growth inhibition of the SK-MEL-28 human tumor cell line is measured as a screen for anti-cancer activity. Cells are grown in 96 well plates and exposed to the test compound for 48 hours. Compounds are tested at a single concentration, which is 10^-5 M for most compounds. The reported endpoint is percent growth (GI% or GIPRCNT), where numbers from 0 - 100% represent growth inhibition, and numbers from -100% - 0 represent cell death. For example, a value of 40 represents 60% growth inhibition. […]
This is part of a sample that, as a whole, favours compounds with a hit. Of some 83,000 tested, about 20% had one in any assay.

{"compound": "CCOC(=O)Sc1ncnc2nc[nH]c12", "subjectOfTest": "SK-MEL-28 melanoma", "resultUnit": "%", "growth": 100}
{"compound": "Nc1c(Cl)cccc1[N+](=O)[O-]", "subjectOfTest": "SK-MEL-28 melanoma", "resultUnit": "%", "growth": 106}
{"compound": "Cc1c(NC(=O)OC[C@@H]2COCCN2)cn2ncnc(Nc3ccc4c(cnn4Cc4cccc(F)c4)c3)c12", "subjectOfTest": "SK-MEL-28 melanoma", "resultUnit": "%", "growth": -10.1}
{"compound": "Cn1cc(-c2cnn3c(N)c(Br)c([C@@H]4CCCNC4)nc23)cn1", "subjectOfTest": "SK-MEL-28 melanoma", "resultUnit": "%", "growth": 72.5}
{"compound": "O=C(Cn1c(=O)ccn(CCCCCCCCOc2ccc(Br)cc2)c1=O)Nc1ccc(Oc2ccc(Cl)cc2)cc1", "subjectOfTest": "SK-MEL-28 melanoma", "resultUnit": "%", "growth": 72.8}
{"compound": "CC(=O)OC(C(=O)c1ccccc1)c1ccccc1 (centres undefined)", "subjectOfTest": "SK-MEL-28 melanoma", "resultUnit": "%", "growth": 107}
{"compound": "COc1ncc(-c2ccc3nccc(-c4ccnnc4)c3c2)cc1NS(=O)(=O)c1ccc(F)cc1F", "subjectOfTest": "SK-MEL-28 melanoma", "resultUnit": "%", "growth": -17.4}
{"compound": "N#Cc1cc2[nH]c3ccc(OC(F)(F)F)cc3c2oc1=O", "subjectOfTest": "SK-MEL-28 melanoma", "resultUnit": "%", "growth": 93}
{"compound": "Nc1c(C(=O)c2ccccc2)sc2nc(-c3cccs3)ccc12", "subjectOfTest": "SK-MEL-28 melanoma", "resultUnit": "%", "growth": 72.6}
{"compound": "CCn1cc(-c2ccnc3[nH]c(-c4cccc(CN(C)C)c4)cc23)c(-c2ccc(NC(=O)N(C)C)cc2)n1", "subjectOfTest": "SK-MEL-28 melanoma", "resultUnit": "%", "growth": 45.2}
{"compound": "C[C@@H](Oc1cc(-n2cnc3ccc(CN4CCN(C)CC4)cc32)sc1C(N)=O)c1ccccc1C(F)(F)F", "subjectOfTest": "SK-MEL-28 melanoma", "resultUnit": "%", "growth": 38}
{"compound": "ClCc1ccc(-c2ccc(Cn3cnc4c(Cl)nc(Cl)nc43)cc2)cc1", "subjectOfTest": "SK-MEL-28 melanoma", "resultUnit": "%", "growth": -29.4}
{"compound": "O=c1nc2c(-c3nc4ccccc4s3)n[nH]n2c2sc3c(c12)CCCC3", "subjectOfTest": "SK-MEL-28 melanoma", "resultUnit": "%", "growth": 114}
{"compound": "COc1cc(N2CCC(N3CCN(C)CC3)CC2)ccc1Nc1ncnc(Nc2ccccc2S(=O)(=O)C(C)C)n1", "subjectOfTest": "SK-MEL-28 melanoma", "resultUnit": "%", "growth": 105}
{"compound": "Cc1cccc(C)c1N1C(c2ccccc2)=NNC12C=CC(=O)c1c(O)cccc12 (centres undefined)", "subjectOfTest": "SK-MEL-28 melanoma", "resultUnit": "%", "growth": 110}
{"compound": "COc1ccc2c(CCc3ccc(Cl)cc3)c3[n+](cc2c1OC)CCc1cc2c(cc1-3)OCO2", "subjectOfTest": "SK-MEL-28 melanoma", "resultUnit": "%", "growth": 27.6}
{"compound": "Nc1ncnc2c1ccn2-c1cccc(NC(=O)c2ccc(N3CCOCC3)c(C(F)(F)F)c2)c1", "subjectOfTest": "SK-MEL-28 melanoma", "resultUnit": "%", "growth": 81.2}
{"compound": "O=C(c1ccccc1)C(c1ccccc1)N1CCOCC1 (centres undefined)", "subjectOfTest": "SK-MEL-28 melanoma", "resultUnit": "%", "growth": 105}
{"compound": "COc1cc2c(Oc3ccc(NC(=O)C4(C(=O)Nc5ccc(F)cc5)CC4)cc3F)ccnc2cc1OCCCN1CCOCC1", "subjectOfTest": "SK-MEL-28 melanoma", "resultUnit": "%", "growth": -78.2}
{"compound": "Cc1cc(N(CCNc2ccnc3cc(Cl)ccc23)Cc2ccc3c(c2)OCO3)nc(N2CCN(C)CC2)n1", "subjectOfTest": "SK-MEL-28 melanoma", "resultUnit": "%", "growth": -65.7}
{"compound": "Cc1cn(-c2cc(NC(=O)c3ccc(C)c(Nc4nccc(-c5cnccn5)n4)c3)cc(C(F)(F)F)c2)cn1", "subjectOfTest": "SK-MEL-28 melanoma", "resultUnit": "%", "growth": 31.3}
{"compound": "CCN(CC)Cc1cc(Nc2cc(C(F)(F)F)c(C#N)c3nc4ccccc4n23)ccc1O", "subjectOfTest": "SK-MEL-28 melanoma", "resultUnit": "%", "growth": 29.6}
{"compound": "O=C(NOCCO)c1cc(CN2OCCCC2=O)c(F)c(F)c1Nc1ccc(I)cc1F", "subjectOfTest": "SK-MEL-28 melanoma", "resultUnit": "%", "growth": 3.09}
{"compound": "COCc1c(-c2ccc(NC(=O)Nc3cc(C(F)(F)F)ccc3F)c(F)c2)c2c(N)ncnn2c1CN1CCOCC1", "subjectOfTest": "SK-MEL-28 melanoma", "resultUnit": "%", "growth": -6.65}
{"compound": "CCN1CCN(Cc2ccc(NC(=O)Nc3nc(-c4cc(OC)c(OC)c(OC)c4)cs3)cc2C(F)(F)F)CC1", "subjectOfTest": "SK-MEL-28 melanoma", "resultUnit": "%", "growth": -51.3}
{"compound": "Clc1ccc(C(Cn2ccnc2)OCc2ccsc2Cl)c(Cl)c1 (centres undefined)", "subjectOfTest": "SK-MEL-28 melanoma", "resultUnit": "%", "growth": 77.2}
{"compound": "Nc1ccc(S(=O)(=O)O)c2cc(S(=O)(=O)O)cc(O)c12", "subjectOfTest": "SK-MEL-28 melanoma", "resultUnit": "%", "growth": 97.1}
{"compound": "Clc1nc(Cl)c2ncn(C/C=C\\Cn3cnc4c(Cl)nc(Cl)nc43)c2n1", "subjectOfTest": "SK-MEL-28 melanoma", "resultUnit": "%", "growth": -19}
{"compound": "COc1cc2nc(Nc3cccc(Cl)c3)nc(N)c2cc1OC", "subjectOfTest": "SK-MEL-28 melanoma", "resultUnit": "%", "growth": 83.8}
{"compound": "CCN(CC)CCNc1ccc(N=Nc2cnc3ccccc3c2)c2ccccc12", "subjectOfTest": "SK-MEL-28 melanoma", "resultUnit": "%", "growth": -92.8}
{"compound": "Cc1cc(C)n(CC(=O)Nc2ccc(-c3nc4ccccc4s3)cc2)n1", "subjectOfTest": "SK-MEL-28 melanoma", "resultUnit": "%", "growth": 109}
{"compound": "C=CCN1C(=O)c2cccc3c(-c4ccc5c(c4)ncn5C4CCCCC4)ccc(c23)C1=O", "subjectOfTest": "SK-MEL-28 melanoma", "resultUnit": "%", "growth": 76.7}
{"compound": "COc1cc2c(cc1OCCCCN1CCN(CC(=O)Nc3ccc(Cl)cc3C(=O)c3ccccc3Cl)CC1)N=CC1CCCN1C2=O (centres undefined)", "subjectOfTest": "SK-MEL-28 melanoma", "resultUnit": "%", "growth": -86}
{"compound": "CNC(=O)c1c(C)oc2cc(Oc3ncnc4cc(OC)c(OC)cc34)ccc12", "subjectOfTest": "SK-MEL-28 melanoma", "resultUnit": "%", "growth": 119}
{"compound": "O=S1(=O)OC(c2ccc(O)c(Cl)c2)(c2ccc(O)c(Cl)c2)c2ccccc21", "subjectOfTest": "SK-MEL-28 melanoma", "resultUnit": "%", "growth": 114}
{"compound": "Nc1cc(C(F)(F)F)c(-c2cc(N3CCOCC3)nc(N3CCOCC3)n2)cn1", "subjectOfTest": "SK-MEL-28 melanoma", "resultUnit": "%", "growth": -47.5}
{"compound": "C[C@@H](N)c1ccc(C(=O)Nc2ccnc3[nH]ccc23)cc1", "subjectOfTest": "SK-MEL-28 melanoma", "resultUnit": "%", "growth": 63}
{"compound": "Cc1cc2c(-c3nc4ccccn4c3N)c(O)c(O)cc2c(O)c1-c1c(C)cc2c(-c3nc4ccccn4c3N)c(O)c(O)cc2c1O", "subjectOfTest": "SK-MEL-28 melanoma", "resultUnit": "%", "growth": 38.3}
{"compound": "COC(=O)CNC(=O)[C@@H](OC)[C@@H]1Cc2cc3cc(OC4CC(OC5CC(O)C(O)C(C)O5)C(O)C(C)O4)c(C)c(O)c3c(O)c2C(=O)[C@H]1OC1CC(OC2CC(OC3CC(C)(O)C(O)C(C)O3)C(O)C(C)O2)C(O)C(C)O1 (some centres undefined)", "subjectOfTest": "SK-MEL-28 melanoma", "resultUnit": "%", "growth": -17.2}
